# reported IC50; entries follow
Biological target: UniProt:P28482
Experiment: Inhibition assay of ERK (Z'-LYTE kinase assay, Ser/Thr 3 peptide substrate)
Assay type: biochemical
Details: In vitro ERK2 enzyme, 100 μM ATP

Smiles entry	Result
O=C1Nc2cc3[nH]nc(-c4ccnnc4)c3cc2CN1[C@@H]1CCCN(Cc2ccccc2F)C1	< 50 nM

Query block: Name the value of IC50 reported for `[2H]c1c([2H])c([2H])c(C([2H])([2H])N2CCC[C@@H](N3Cc4cc5c(-c6ccnc(C)c6)n[nH]c5cc4NC3=O)C2)c([2H])c1[2H]` when tested on UniProt:P28482.
Result block: < 50 nM

Query block: Name the value of IC50 reported for `Cc1cc(-c2n[nH]c3cc4c(cc23)CN(C2CCN(CCc3ccccc3)CC2)C(=O)N4)ccn1` when tested on UniProt:P28482.
Result block: 50 to 250 nM

Query block: Name the value of IC50 reported for `COc1cccc(F)c1CN1CC[C@@H](N2Cc3cc4c(-c5ccnc(C)c5)n[nH]c4cc3NC2=O)C1` when tested on UniProt:P28482.
Result block: < 50 nM

Query block: Name the value of IC50 reported for `O=C1Nc2cc3[nH]nc(-c4ccc(F)cc4)c3cc2CN1Cc1ccc(F)c(Cl)c1` when tested on UniProt:P28482.
Result block: 50 to 250 nM

Query block: Name the value of IC50 reported for `Cc1cc(-c2n[nH]c3cc4c(cc23)CN(CCc2cccc(Cl)c2)C(=O)N4)ccn1` when tested on UniProt:P28482.
Result block: < 50 nM

Query block: Name the value of IC50 reported for `COc1ncc(-c2n[nH]c3cc4c(cc23)CN(CCc2cccc(Cl)c2)C(=O)N4)cn1` when tested on UniProt:P28482.
Result block: < 50 nM

====

Target: ERK2 enzyme (Homo sapiens (Human))
Sequence (P28482 whole entry): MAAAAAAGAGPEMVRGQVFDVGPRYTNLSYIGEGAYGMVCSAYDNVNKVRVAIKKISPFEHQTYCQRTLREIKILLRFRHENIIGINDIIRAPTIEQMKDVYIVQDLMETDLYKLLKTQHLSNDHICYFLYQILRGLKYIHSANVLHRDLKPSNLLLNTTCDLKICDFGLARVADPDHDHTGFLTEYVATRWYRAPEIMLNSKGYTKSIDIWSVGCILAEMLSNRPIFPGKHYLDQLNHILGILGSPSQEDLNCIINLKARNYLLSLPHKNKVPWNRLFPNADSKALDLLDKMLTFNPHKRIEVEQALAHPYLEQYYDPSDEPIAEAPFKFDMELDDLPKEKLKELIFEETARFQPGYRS
Assay: Inhibition assay of ERK (Z'-LYTE kinase assay, Ser/Thr 3 peptide substrate)
Assay type: biochemical
Conditions: In vitro, ERK2 enzyme 0.47 ng/μL, 100 μM ATP
Measurement type: IC50

Worked set:
Compound	IC50
Cc1cc(-c2n[nH]c3cc4[nH]c(=O)c(C(C)c5ccc(F)cc5F)cc4cc23)ccn1 (stereo not shown)	50 to 250 nM
Cc1cc(-c2n[nH]c3cc4c(cc23)CC([C@H](C)c2ccccc2)C(=O)N4)ccn1 (stereo partly shown)	50 to 250 nM
Cc1cc(-c2n[nH]c3cc4c(cc23)CN([C@@H]2CNC[C@H]2c2ccccc2)C(=O)N4)ccn1 (racemic)	< 50 nM
Cc1cc(-c2n[nH]c3cc4c(cc23)CN([C@@H]2CCCN(Cc3cccs3)C2)C(=O)N4)ccn1	< 50 nM
Cn1nccc1-c1n[nH]c2cc3c(cc12)CN(Cc1cccc(Cl)c1)C(=O)N3	50 to 250 nM
Cc1cc(-c2n[nH]c3cc4c(cc23)CN([C@@H]2CN(CC(F)F)C[C@H]2c2ccccc2)C(=O)N4)ccn1 (mixture of isomers)	< 50 nM
Cc1cc(-c2n[nH]c3cc4c(cc23)CN(Cc2nc(C)cs2)C(=O)N4)ccn1	< 50 nM
Cc1cc(-c2n[nH]c3cc4c(cc23)CN([C@@H]2CCCN(Cc3csc(C)c3)C2)C(=O)N4)ccn1	< 50 nM
Cc1cc(-c2n[nH]c3cc4c(cc23)CN([C@@H]2CN(C)C[C@H]2c2ccccc2)C(=O)N4)cc(C)n1 [Compound 308]	< 50 nM
Cc1cc(-c2n[nH]c3cc4c(cc23)CN([C@@H]2CN(CC#N)C[C@H]2c2ccccc2)C(=O)N4)ccn1 (mixture of isomers)	< 50 nM

Query block: Look up and state reported IC50 for `Cc1cc(-c2n[nH]c3cc4c(cc23)CN([C@@H]2CCC[C@@H](NCc3ccccc3)C2)C(=O)N4)ccn1`
Result block: < 50 nM

Query block: Look up and state reported IC50 for Cc1cc(-c2n[nH]c3cc4c(cc23)CN([C@@H]2CCCN(C(C)C(F)(F)F)C2)C(=O)N4)ccn1 (stereo partly shown)
Result block: < 50 nM

Query block: Look up and state reported IC50 for `COc1ncc(-c2n[nH]c3cc4c(cc23)CN([C@@H]2CCCN(Cc3ccc(F)cc3F)C2)C(=O)N4)cn1`
Result block: < 50 nM

Query block: Look up and state reported IC50 for `Cc1cc(-c2n[nH]c3cc4c(cc23)CN([C@@H]2CCN(c3ccc(F)cn3)C2)C(=O)N4)ccn1`
Result block: 50 to 250 nM

Query block: Look up and state reported IC50 for `Cc1cc(-c2n[nH]c3cc4c(cc23)CN([C@H]2CCN(CC(F)(F)F)C2)C(=O)N4)ccn1`
Result block: < 50 nM

Query block: Look up and state reported IC50 for `Cc1cc(-c2n[nH]c3cc4c(cc23)CN(CCC2CCOCC2)C(=O)N4)ccn1`
Result block: < 50 nM

Query block: Look up and state reported IC50 for Cc1cc(-c2n[nH]c3cc4c(cc23)CN(C(C)C2CCCC2)C(=O)N4)ccn1 (stereo not shown)
Result block: < 50 nM

Query block: Look up and state reported IC50 for `COc1ncc(-c2n[nH]c3cc4c(cc23)CN([C@@H]2CCCN(Cc3cccs3)C2)C(=O)N4)cn1`
Result block: < 50 nM

Query block: Look up and state reported IC50 for `Cc1cc(-c2n[nH]c3cc4c(cc23)CN([C@@H]2CCN(C(C)C)C2)C(=O)N4)ccn1`
Result block: 50 to 250 nM
